These entries and their values trace back to ChEMBL document CHEMBL2331397.

# Test method notes: Cytotoxicity against mouse P815B cells assessed as cell viability at 10 uM by MTT assay relative to control
# Format: cell-based
# Assay context: read-out: Activity
Measured property: viability at 10 µM

Completed entries (count: 2):
{"columns": ["Compound", "viability at 10 µM"],
 "data": [
  ["COc1ccc(C2CNC3=C2C(=O)c2ccn(S(=O)(=O)c4ccc(C)cc4)c2C3=O)cc1 (stereo unspecified)", "> 90%"],
  ["COc1ccc(-c2c[nH]c3c2C(=O)c2[nH]cc4c2C3=NCC4)cc1", "< 50%"]
]}

Lab note: COc1ccc(C2CNC3=C2C(=O)c2c(c(CCN)cn2S(=O)(=O)c2ccc(C)cc2)C3=O)cc1 (stereo unspecified) gave viability at 10 µM of > 90%
